// data source = patent US6645755B1

- Target entity: Huβ1AR (Homo sapiens)
- Sequence (P08588 58-377 limits assumed): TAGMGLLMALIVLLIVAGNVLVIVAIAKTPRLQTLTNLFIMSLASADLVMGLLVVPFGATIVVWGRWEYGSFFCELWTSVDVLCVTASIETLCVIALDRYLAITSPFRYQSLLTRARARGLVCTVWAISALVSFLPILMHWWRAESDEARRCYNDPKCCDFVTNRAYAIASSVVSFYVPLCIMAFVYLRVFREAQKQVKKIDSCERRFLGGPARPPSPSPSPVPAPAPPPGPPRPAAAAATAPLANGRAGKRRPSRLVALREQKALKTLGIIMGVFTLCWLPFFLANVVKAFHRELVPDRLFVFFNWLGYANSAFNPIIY
- Assay protocol: Competition binding against ICYP on E. coli expressing Huβ1AR (pSMLβ1)
- Cond: read-out: Ki E. coli Huβ1AR; 10 pM ICYP as radioligand; Ki calculated from IC50
pKi: −log10 of the molar value.
Property: pKi

Compound	Property	Measured result
CC(C)(C)NCC(O)c1cc(Cl)c(N)c(Cl)c1 (stereo not shown)	pKi	7.43

----------
- Target entity: human β2-adrenergic receptor (Homo sapiens)
- Construct: extending from the NcoI site to the DraI site which contained the coding region for the human β2-adrenergic receptor; β-galactosidase (lacZ product of λgt11, fused at the EcoRI site near the 3' end of lacZ) (N); linker Asp-Asp-Pro (acid-cleavable) (N)
- Assay protocol: cell-based

Compound	Unit abbrev	Ki
CCC(NC(C)C)C(O)c1ccc(O)c2[nH]c(=O)ccc12 (stereo not shown)	nM	40

----------
Ki for assorted compounds
- Target entity: Huβ2AR (Homo sapiens)
- Sequence (P07550 whole entry): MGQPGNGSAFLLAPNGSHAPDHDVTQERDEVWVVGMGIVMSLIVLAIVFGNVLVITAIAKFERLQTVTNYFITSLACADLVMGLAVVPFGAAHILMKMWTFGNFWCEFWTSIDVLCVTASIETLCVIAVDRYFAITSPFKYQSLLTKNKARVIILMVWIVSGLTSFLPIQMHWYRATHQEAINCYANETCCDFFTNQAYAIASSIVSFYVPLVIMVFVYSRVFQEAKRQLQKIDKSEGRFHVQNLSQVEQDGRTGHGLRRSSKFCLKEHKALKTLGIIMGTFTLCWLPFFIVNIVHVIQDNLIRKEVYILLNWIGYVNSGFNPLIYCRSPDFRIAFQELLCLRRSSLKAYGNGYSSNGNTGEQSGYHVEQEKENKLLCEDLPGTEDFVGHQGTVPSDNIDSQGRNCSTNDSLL
- Assay protocol: Competition binding against ICYP on E. coli expressing Huβ2AR (pSMLβ2)

Compound	Ki, nM
CC(C)(Cc1ccccc1)NCC(O)c1ccc(O)c(NS(C)(=O)=O)c1 (centres unmarked) [zinterol]	9.14
CCC(NC(C)C)C(O)c1ccc(O)c2[nH]c(=O)ccc12 (centres unmarked) [procaterol]	55.3
